meta.source: patent US10035790B2

Target: ligand binding domain of human RORγ (A262-S507) (Homo sapiens)
Construct: made in house; host or cells: E. coli
Test: General RORγ SPA binding assay (competition with [3H]25-hydroxycholesterol)
Conditions: RORγ SPA binding assay, inhibition of [3H]25-hydroxycholesterol binding; read-out: IC50
Reported values of IC50 for individual entries
Supply the numeric figure in nM, leaving out any unit text.

Solved entries (count: 3):
- molecule: "Cc1nc(N)nc(C2CCN(C(=O)Oc3ccc(F)cc3)CC2)c1-c1nnc(-c2ccnc(C(F)(F)F)n2)o1 [Compound C53]"
  numericReadout: 37.3
- molecule: "Cc1cc(C)cc(COC(C)(C)c2cnc(C)nc2C2CCN(C(=O)Cc3c(F)cccc3F)CC2)c1 [Compound E5]"
  numericReadout: 10.6
- molecule: "Cc1ncc(C(C)(O)CNc2cccc(Cl)c2)c(C2CCN(C(=O)Cc3c(F)cccc3F)CC2)n1 (stereo not shown) [Compound D1]"
  numericReadout: 2.6

From here, focus on the item given below.
Form entry - test system: ligand binding domain of human RORγ (A262-S507) (Homo sapiens); read-out: IC50; molecule: Cc1nc(C)c(-c2nnc(-c3ccnc(C(F)(F)F)n3)o2)c(C2CCN(C(=O)Nc3c(Cl)cccc3Cl)CC2)n1 [Compound C31]
49.6

###

Target: ligand binding domain of human RORγ (A262-S507) (Homo sapiens, UniProt P51449)
Construct: made in house; host or cells: E. coli
Sequence (P51449 262-507): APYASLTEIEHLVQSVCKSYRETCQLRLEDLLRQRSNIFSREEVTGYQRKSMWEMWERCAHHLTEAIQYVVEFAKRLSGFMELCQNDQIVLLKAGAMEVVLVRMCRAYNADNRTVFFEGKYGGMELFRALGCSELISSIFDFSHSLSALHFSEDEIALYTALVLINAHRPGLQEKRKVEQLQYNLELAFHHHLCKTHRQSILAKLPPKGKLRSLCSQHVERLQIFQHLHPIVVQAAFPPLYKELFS
Assay: General RORγ SPA binding assay (competition with [3H]25-hydroxycholesterol)
Conditions: RORγ SPA binding assay, inhibition of [3H]25-hydroxycholesterol binding; read-out: IC50
readoutLabel: pIC50
Keep in mind that pIC50 stands for -log10 of concentration in molar terms.

Solved entries (count: 4):
- molecule: "Cc1cc(C)cc(CNC(=O)c2c(C3CCN(C(=O)Cc4c(F)cccc4F)CC3)nc(C)nc2C(F)(F)F)c1 [Compound A112]"
  pIC50: 7.47
- molecule: "Cc1cc(C)cc(COC(C)c2cnc(C)nc2C2CCN(C(=O)Cc3c(F)cccc3F)CC2)c1 (centres unmarked) [Compound E11]"
  pIC50: 7.72
- molecule: "Cc1ncc(C(C)(O)Cc2cccc(C(F)(F)F)n2)c(C2CCN(C(=O)Nc3c(F)cccc3F)CC2)n1 (centres unmarked) [Compound D47]"
  pIC50: 7.28
- molecule: "Cc1ncc(C(=O)NCc2ccc(Cl)cc2C)c(C2CCN(C(=O)Cc3c(F)cccc3F)CC2)n1 [Compound A59]"
  pIC50: 7.59

// lookup pIC50 for Cc1cc(C)cc(CNC(=O)c2cnc(C)nc2C2CCN(CC(=O)c3ccccc3Cl)CC2)c1 [Compound A115]
6.47

// lookup pIC50 for Cc1cc(C)cc(CNC(=O)c2cnc(C)nc2C2CCN(C(=O)C(C)(C)c3ccccc3)CC2)c1 [Compound A35]
5.53

###

Molecular target: ligand binding domain of human RORγ (A262-S507) (Homo sapiens, UniProt P51449)
Construct: made in house; host or cells: E. coli
Test: General RORγ SPA binding assay (competition with [3H]25-hydroxycholesterol)
Conditions: RORγ SPA binding assay, inhibition of [3H]25-hydroxycholesterol binding; read-out: IC50
readoutLabel: pIC50
Keep in mind that pIC50 stands for -log10 of concentration in molar terms.

Solved entries (count: 5):
- molecule: "CSc1ncc(C(C)(O)COc2ccnc(C(F)(F)F)n2)c(C2CCN(C(=O)Nc3c(F)cccc3F)CC2)n1 (stereo not shown)"
  testSystem: "ligand binding domain of human RORγ (A262-S507) (Homo sapiens, UniProt P51449)"
  pIC50: 7.83
- molecule: "Cc1nc(C)c(C(=O)NOc2cccc(Cl)c2)c(C2CCN(C(=O)Cc3c(F)cccc3F)CC2)n1"
  testSystem: "ligand binding domain of human RORγ (A262-S507) (Homo sapiens, UniProt P51449)"
  pIC50: 6.30
- molecule: "C/C(=N/Oc1cccc(C(F)(F)F)c1)c1cnc(C)nc1C1CCN(C(=O)Nc2c(F)cccc2F)CC1"
  testSystem: "ligand binding domain of human RORγ (A262-S507) (Homo sapiens, UniProt P51449)"
  pIC50: 7.07
- molecule: "C/C(=N\\Oc1ccnc(Cl)c1)c1cnc(C)nc1C1CCN(C(=O)Cc2c(F)cccc2F)CC1"
  testSystem: "ligand binding domain of human RORγ (A262-S507) (Homo sapiens, UniProt P51449)"
  pIC50: 8.29
- molecule: "C/C(=N\\Oc1cccc(F)c1)c1cnc(C)nc1C1CCN(C(=O)Cc2c(F)cccc2F)CC1"
  testSystem: "ligand binding domain of human RORγ (A262-S507) (Homo sapiens, UniProt P51449)"
  pIC50: 8.23

Form entry - test system: ligand binding domain of human RORγ (A262-S507) (Homo sapiens, UniProt P51449); read-out: pIC50; molecule: O=C(NCc1cccc(Cl)c1)c1cnc(NCCO)nc1C1CCN(C(=O)Cc2c(F)cccc2F)CC1
8.77

Form entry - test system: ligand binding domain of human RORγ (A262-S507) (Homo sapiens, UniProt P51449); read-out: pIC50; molecule: Cc1cc(C)cc(OCC(C)(O)c2cnc(C)nc2C2CCN(C(=O)Cc3c(F)cccc3F)CC2)c1 (stereo not shown)
7.84

###

Biological target: ligand binding domain of human RORγ (A262-S507) (Homo sapiens, UniProt P51449)
Construct: made in house; host or cells: E. coli
Assay: General RORγ SPA binding assay (competition with [3H]25-hydroxycholesterol)
Settings: RORγ SPA binding assay, inhibition of [3H]25-hydroxycholesterol binding; read-out: IC50
readoutLabel: log10(IC50) (log10 of the value in nM)
Values below are the log10 of the recorded IC50, with nM as the unit.

Solved entries (count: 3):
- molecule: "C/C(=N/Oc1cccc(Cl)c1)c1cnc(C)nc1C1CCN(C(=O)Cc2c(F)cccc2F)CC1"
  numericReadout: 3.29
- molecule: "Cc1nc(C)c(-c2nnc(-c3ccnc(C(F)(F)F)n3)o2)c(C2CCN(C(=O)C(C)c3c(F)cccc3F)CC2)n1 (centres unmarked)"
  numericReadout: 2.37
- molecule: "Nc1ncc(C(O)CNc2ccnc(C(F)(F)F)n2)c(C2CCN(C(=O)Nc3c(F)cccc3F)CC2)n1 (centres unmarked)"
  numericReadout: 1.84

// lookup log10(IC50) for CSc1ncc(/C(C)=N/Oc2cccc(C(F)(F)F)c2)c(C2CCN(C(=O)Nc3c(F)cccc3F)CC2)n1
2.65

// lookup log10(IC50) for Cc1cc(C)cc(CNC(=O)c2cnc(C)nc2C2CCN(C(=O)Cc3ccc(F)cc3)CC2)c1
3.04

###

Target: ligand binding domain of human RORγ (A262-S507) (Homo sapiens)
Construct: made in house; host or cells: E. coli
Assay: General RORγ SPA binding assay (competition with [3H]25-hydroxycholesterol)
Conditions: RORγ SPA binding assay, inhibition of [3H]25-hydroxycholesterol binding; read-out: IC50
Threshold check on IC50: strictly below 0.008 µM is YES; on or above 0.008 µM is NO.

- molecule: "Cc1nc(C)c(C(O)COc2ccnc(C(F)(F)F)n2)c(C2CCN(C(=O)Nc3c(F)cccc3F)CC2)n1 (stereo not drawn) [Compound M9]"
  classification: "YES"
- molecule: "Cc1cc(C)cc(CC=Cc2cnc(C)nc2C2CCN(C(=O)Cc3c(F)cccc3F)CC2)c1 (mixture of isomers)"
  classification: "NO"
- molecule: "Cc1ncc(/C(CF)=N/Oc2ccnc(C(F)(F)F)n2)c(C2CCN(C(=O)Cc3c(F)cccc3F)CC2)n1"
  classification: "NO"
- molecule: "Cc1ncc(C(C)(O)COc2cccc(C(F)(F)F)n2)c(C2CCN(C(=O)Cc3c(F)cccc3F)CC2)n1 (stereo not drawn)"
  classification: "YES"
- molecule: "Cc1cc(C)cc(CNC(=O)c2cnc(C)nc2C2CCN(C(=O)c3ccccc3F)CC2)c1"
  classification: "NO"

Would you kindly verify if IC50 of C/C(=N\Oc1ccnc(Cl)c1)c1cnc(N)nc1C1CCN(C(=O)Nc2c(F)cccc2F)CC1 is strictly less than 0.008 µM?
NO

Would you kindly verify if IC50 of CC(O)(COc1ccnc(C(F)(F)F)n1)c1cnc(OCC(F)F)nc1C1CCN(C(=O)Nc2c(F)cccc2F)CC1 (stereo not drawn) is strictly less than 0.008 µM?
NO

Would you kindly verify if IC50 of COc1ncc(C(=O)NCc2ccc(Cl)c(Cl)c2)c(C2CCN(C(=O)Cc3c(F)cccc3F)CC2)n1 is strictly less than 0.008 µM?
YES

Would you kindly verify if IC50 of Cc1ncc(C(C)(O)CNc2cccc(C(F)(F)F)n2)c(C2CCN(C(=O)Cc3c(F)cccc3F)CC2)n1 (stereo not drawn) [Compound D2] is strictly less than 0.008 µM?
YES

Would you kindly verify if IC50 of Cc1ncc(/C(CO)=N/Oc2ccnc(C(F)(F)F)c2)c(C2CCN(C(=O)Cc3c(F)cccc3F)CC2)n1 is strictly less than 0.008 µM?
NO

Would you kindly verify if IC50 of Cc1ccnc(NCC(C)(O)c2cnc(C)nc2C2CCN(C(=O)Cc3c(F)cccc3F)CC2)c1 (stereo not drawn) is strictly less than 0.008 µM?
NO
